The reported numbers originate from patent US20260337153A1.

Experiment: LNP average particle size and polydispersity by dynamic light scattering
Assay type: physicochemical
Conditions: Table 3, Experiments 1-13; LNP 50% ionizable lipid, 38% cholesterol, 9% DSPC, 3% PEG2K-DMG; sgRNA:mRNA 1:2
OBSERVED_PROPERTY: Z-avg (nm)

1) CCCCC/C=C\C/C=C\CCCCCCCC(=O)OCC(CCCCCCC(=O)OC(CCCCCCCC)CCCCCCCC)COC(=O)OCCCN(CC)CC (stereo not shown) [Compound 16] ... 68

a = CCCCCCCCC(CCCCCCCC)OC(=O)CCCC(=O)OCC(COC(=O)CCCC(=O)OC(CCCCCCCC)CCCCCCCC)COC(=O)NCCN1CCCC1 [Compound 29]
b = CCCCCCC(CCCC)COC(=O)CCCCCC(=O)OCC(COC(=O)CCCCCC(=O)OCC(CCCC)CCCCCC)COC(=O)OCCCN(CC)CC (stereo not shown) [Compound 5]
Q. Of the pair a and b , name the member with the lesser recorded Z-avg. Reply briefly: the label of your chosen item.
A. a
(a: 74 nm, b: 109 nm)

A = CCCCC/C=C\C/C=C\CCCCCCCC(=O)OCC(CCCCC(=O)OC(CCCC)CCCC)COC(=O)OCCCN(C)CC (stereo not shown) [Compound 13]
B = CCCCCCCCC(CCCCCCCC)OC(=O)CCCC(=O)OCC(COC(=O)CCCC(=O)OC(CCCCCCCC)CCCCCCCC)COC(=O)OCCCN(C)C [Compound 31]
Q. Given the listed records, identify the one among A and B with higher Z-avg. Reply briefly: the label of your chosen item.
A. A
